// data source = patent US9976134B2

Let's look at some molecules and their measured PI (performance index), stain removal.
Assay conditions: TIDE 2X 0.78 g/l, 6 gpg, pH 8.2, 30 min at 20°C, A405; variant vs wild-type thermolysin at same protein concentration
Lab note: record just the number, no unit beside it.

1. Y151E: single-substitution thermolysin variant (SEQ ID NO:3 numbering) (protein, listed as Geobacillus caldoproteolyticus) ITGTSTVGVGRGVLGDQKNINTTYSTYYYLQDNTRGNGIFTYDAKYRTTLPGSLWADADNQFFASYDAPAVDAHYYAGVTYDYYKNVHNRLSYDGNNAAIRSSVHYSQGYNNAFWNGSQMVYGDGDGQTFIPLSGGIDVVAHELTHAVTDETAGLIYQNESGAINEAISDIFGTLVEFYANKNPDWEIGEDVYTPGISGDSLRSMSDPAKYGDPDHYSKRYTGTQDNGGVHINSGIINKAAYLISQGGTHYGVSVVGIGRDKLGKIFYRALTQYLTPTSNFSQLRAAAVQSATDLYGSTSQEVASVKQAFDAVGVK :: 1.11

Read the next record carefully.
Asked: Report PI (performance index), stain removal for Y151N: single-substitution thermolysin variant (SEQ ID NO:3 numbering) (protein, listed as Geobacillus caldoproteolyticus) ITGTSTVGVGRGVLGDQKNINTTYSTYYYLQDNTRGNGIFTYDAKYRTTLPGSLWADADNQFFASYDAPAVDAHYYAGVTYDYYKNVHNRLSYDGNNAAIRSSVHYSQGYNNAFWNGSQMVYGDGDGQTFIPLSGGIDVVAHELTHAVTDNTAGLIYQNESGAINEAISDIFGTLVEFYANKNPDWEIGEDVYTPGISGDSLRSMSDPAKYGDPDHYSKRYTGTQDNGGVHINSGIINKAAYLISQGGTHYGVSVVGIGRDKLGKIFYRALTQYLTPTSNFSQLRAAAVQSATDLYGSTSQEVASVKQAFDAVGVK please.
Given back: 1.19
